- System: LOX IMVI melanoma
- test summary: NCI tumour cell line growth inhibition, 48 h
Each entry below lists one item and its recorded TGI value.

Give TGI; test system LOX IMVI melanoma; compound O=C(/C=C\c1ccccc1)Oc1ccc(/C=C2\CCCCC2=O)cc1
> 100 µM

* * *

Each entry below lists one item and its recorded log10(TGI) value.
- System: SK-MEL-28 melanoma
- test summary: NCI tumour cell line growth inhibition, 48 h
Where a SMILES comes first, the peptide text is derived from it. [ ]: non-standard residue; d: D form. NMeY = CN[C@@H](Cc1ccc(O)cc1)C(=O)O; dNMeF = CN[C@H](Cc1ccccc1)C(=O)O; Sar = CNCC(=O)O
Please keep in mind that the values are log10 of TGI expressed in µM.

compound	quantity measured	value observed
CC(=O)O[C@H]1CC[C@]2(C)[C@H]3CC=C4[C@@H]5CC(C)(C)CC[C@]5(C(=O)NCCNCCN)CC[C@@]4(C)[C@]3(C)CC[C@H]2C1(C)C	log10(TGI)	0.51
CN1CCN(Cc2ccc(NC(=O)c3nc4ccc5[nH]ncc5c4c4c3CCC4)cc2C(F)(F)F)CC1	log10(TGI)	0.21
CC1(C)N=C(N)N=C(N)N1c1cccc(CCCCc2ccccc2)c1	log10(TGI)	1.19
O=C(NCCNCCNCCNC(=O)c1cc(-c2ccccc2)nc2ccccc12)c1cc(-c2ccccc2)nc2ccccc12	log10(TGI)	0.49
CC(C)[Si](OC1=C(C(=O)N(C)c2ccccc2Cl)CCCC1)(C(C)C)C(C)C	log10(TGI)	1.57

Give recorded log10(TGI). CC[C@H](C)[C@@H]1NC(=O)[C@H](Cc2ccc(O)cc2)N(C)C(=O)[C@H](Cc2ccccc2)NC(=O)CN(C)C(=O)[C@@H]2CCCN2C(=O)[C@@H](Cc2ccccc2)N(C)C(=O)[C@H](CC(C)C)NC1=O (cyclo(F[NMeY]IL[dNMeF]P[Sar]))
0.16

* * *

- System: SNB-75 CNS
- test summary: NCI tumour cell line growth inhibition, 48 h; in the data active = GI50 below about 0.43 µM; inactive = the rest
Log the outcome using a class from Yes for active, No for inactive

Solved entries:
> print(dat)
                              smiles.record  assigned.class
1  O=c1oc2ccc(Cl)cc2c(=O)n1-c1cc(C(F)(F)F)cc(C(F)(F)F)c1             Yes
2    COc1cc2nc(N3CCCC3)nc(Nc3ccccc3)c2cc1OC              No
3  CCN(CC)CCCOc1cc(O)c2c(=O)cc(-c3ccccc3)oc2c1              No
4  Cc1ccc2c(Nc3cccc(Cl)c3F)ncc(NC(=O)c3csc4c(N)ncnc34)c2c1              No
5  COc1ccc2[nH]c(=O)c(/C=C/C(=O)/C=C/c3ccc(O)c(OC)c3)cc2c1              No

# lookup: test call for CC1(C)CC(OCCCC[P+](c2ccccc2)(c2ccccc2)c2ccccc2)CC(C)(C)N1O
Yes

# lookup: test call for c1ccc(-c2nnc(Nc3ccc4c(c3)OCCO4)o2)c(NCc2ccncc2)c1
Yes

# lookup: test call for CN(C)C(=O)c1cc2cnc(Nc3ccc(-c4csc5c(=O)cc(N6CCNCC6)oc45)cc3)nc2n1C1CCCC1
Yes

# lookup: test call for CO/N=C(/COc1c(-c2ccccc2)oc2ccccc2c1=O)c1ccc(OC)cc1
No

# lookup: test call for CC1(C)N=C(N)N=C(N)N1c1cccc(CCCCc2ccccc2)c1
No

# lookup: test call for Nc1c(C(=O)c2cccc(C#CCN3CCOCC3)c2)cnn1-c1ccc(F)cc1
No

# lookup: test call for CCC[CH2][Sn]([CH2]CCC)([O]C(=O)c1cc(OC)c(OC)cc1OC)[O]C(=O)c1cc(OC)c(OC)cc1OC
Yes

# lookup: test call for O=C1c2cc3c(cc2[C@@H]2[C@H]1c1ccc([N+](=O)[O-])cc1C(=O)N2CCCCl)OCO3
Yes

# lookup: test call for Nc1c(C(=O)c2cccc(CCC3(O)CCCC3)c2)cnn1-c1ccc(F)cc1
No

# lookup: test call for Cc1cc2c3ccccc3ccc2[n+]2ccccc12
No

# lookup: test call for CCOC(=O)Cn1c(C)c(/C=N/NC(=O)c2cc3c(ccc4ccccc43)o2)c2ccccc21
Yes

Reference for the values: PubChem BioAssay (NCI)
